Target: Human mTOR (FLAG-TOR) (Homo sapiens, UniProt P42345)
Sequence (P42345 1360-2549 limits assumed): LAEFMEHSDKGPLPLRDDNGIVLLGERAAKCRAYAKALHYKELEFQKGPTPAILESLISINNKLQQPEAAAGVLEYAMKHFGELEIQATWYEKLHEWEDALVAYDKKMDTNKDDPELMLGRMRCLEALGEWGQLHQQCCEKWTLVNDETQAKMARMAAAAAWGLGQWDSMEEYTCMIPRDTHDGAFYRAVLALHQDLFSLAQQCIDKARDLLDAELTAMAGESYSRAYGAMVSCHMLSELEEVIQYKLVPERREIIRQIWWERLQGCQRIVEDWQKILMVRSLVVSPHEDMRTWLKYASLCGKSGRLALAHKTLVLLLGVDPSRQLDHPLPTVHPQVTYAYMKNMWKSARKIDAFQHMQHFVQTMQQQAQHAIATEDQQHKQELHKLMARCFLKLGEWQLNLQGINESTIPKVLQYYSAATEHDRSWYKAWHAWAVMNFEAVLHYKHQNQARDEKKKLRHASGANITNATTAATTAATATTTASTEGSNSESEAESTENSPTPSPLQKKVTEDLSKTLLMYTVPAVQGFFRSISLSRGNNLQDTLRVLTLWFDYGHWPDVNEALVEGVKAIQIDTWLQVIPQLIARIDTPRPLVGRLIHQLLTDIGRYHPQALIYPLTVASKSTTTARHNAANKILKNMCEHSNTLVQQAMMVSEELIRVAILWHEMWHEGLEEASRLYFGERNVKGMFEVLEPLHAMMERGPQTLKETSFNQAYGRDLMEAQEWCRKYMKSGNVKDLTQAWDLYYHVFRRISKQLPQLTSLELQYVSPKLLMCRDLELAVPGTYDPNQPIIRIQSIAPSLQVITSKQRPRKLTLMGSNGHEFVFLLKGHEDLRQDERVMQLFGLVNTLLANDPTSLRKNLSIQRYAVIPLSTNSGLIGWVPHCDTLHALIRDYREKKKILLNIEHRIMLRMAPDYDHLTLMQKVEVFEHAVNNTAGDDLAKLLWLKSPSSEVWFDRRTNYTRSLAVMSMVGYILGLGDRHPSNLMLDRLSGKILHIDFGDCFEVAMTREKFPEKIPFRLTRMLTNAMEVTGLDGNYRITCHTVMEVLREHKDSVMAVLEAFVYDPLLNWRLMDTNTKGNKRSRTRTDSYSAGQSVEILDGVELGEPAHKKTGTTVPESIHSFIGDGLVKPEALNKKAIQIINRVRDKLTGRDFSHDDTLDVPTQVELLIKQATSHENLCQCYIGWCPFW
Assay: mTOR kinase assay (DELFIA format, purified enzyme)
Type: biochemical
Conditions: read-out: IC50 mTOR
Attribute measured: IC50 (nM)

1. FC(F)c1nc2ccccc2n1-c1nc(N2CC3CCC(C2)O3)nc(N2CC3CCC(C2)O3)n1 43.5
2. O=C(Nc1ccc(C(=O)N2CCN(C3CCCC3)CC2)cc1)Nc1ccc(-c2nc(N3CCOCC3)nc(N3C4CCC3COC4)n2)cc1 0.57
3. CCc1nc(-c2ccc(NC(=O)Nc3cccc(C(=O)OC)c3)cc2)nc(N2CCOCC2)n1 37
4. CCc1nc(-c2ccc(NC(=O)Nc3ccc(OCCN(C)C)cc3)cc2)nc(N2CCOCC2)n1 29
5. CCS(=O)(=O)N1CCN(c2nc(-c3ccc(NC(=O)Nc4ccc(C(=O)O)cc4)cc3)nc(N3CCOCC3)n2)CC1 4
6. CN(C)[C@@H]1CCN(C(=O)c2ccc(NC(=O)Nc3ccc(-c4nc(N5CCOCC5)nc(N5C6CCC5COC6)n4)cc3)cc2)C1 185
7. COCCNC(=O)c1ccc(NC(=O)Nc2ccc(-c3nc(-c4ccccc4)nc(N4CCOCC4)n3)cc2)cc1 10
8. COC(CNc1nc(-c2ccc(NC(=O)Nc3cccnc3)cc2)nc(N2CCOCC2)n1)OC 3.4
9. CNC(=O)c1ccc(NC(=O)Nc2ccc(-c3nc(N4CCOCC4)nc(N4C5CCC4COC5)n3)cc2)cc1 0.275
10. CC(C)Nc1nc(-c2ccc(NC(=O)Nc3ccc(OCCN(C)C)cc3)cc2)nc(N2CC3CCC(C2)O3)n1 3.5
11. O=C(Nc1ccc(C(=O)N2CCC(N3CCOCC3)CC2)cc1)Nc1ccc(-c2nc(N3CCOCC3)nc(N3C4CCC3COC4)n2)cc1 0.28
12. CC(=O)c1cccc(NC(=O)Nc2ccc(-c3nc(OC4CCOCC4)nc(N4CCOCC4)n3)cc2)c1 5.05
13. CCCCc1nc(-c2ccc(NC(=O)Nc3ccc(C=O)cc3)cc2)nc(N2CCOCC2)n1 16
14. CC(C)c1nc(-c2ccc(NC(=O)Nc3ccc(C(=O)O)cc3)cc2)nc(N2CCOCC2)n1 0.8
15. O=C(Nc1ccc(-c2nc(N3C[C@@H]4C[C@H]3CO4)nc(N3C[C@@H]4C[C@H]3CO4)n2)cc1)Nc1ccc(N2CCNCC2)cc1 37
16. O=C(Nc1ccc(C(=O)O)cc1)Nc1ccc(-c2nc(N3CCOCC3)nc(N3C4COCC3COC4)n2)cc1 0.215
17. O=C(Nc1ccncc1)Nc1ccc(-c2nc(N3CCOCC3)nc(N3CC4CCC(C3)O4)n2)cc1 1.8
18. Cc1ccc(-c2nc(-c3ccc(NC(=O)Nc4cccc(C(=O)N(C)CCN(C)C)c4)cc3)nc(N3CCOCC3)n2)cc1 100
19. COC(=O)c1ccc(NC(=O)Nc2ccc(-c3nc(N4CCOCC4)nc(N4C5COCC4COC5)n3)cc2)cc1 0.27
20. O=C(Nc1ccccc1)Nc1ccc(-c2nc(N3CCOCC3)nc(N3CCOCC3)n2)cc1 3.85

###

Listed here are molecules together with their documented pIC50.
Target: Human mTOR (FLAG-TOR) (Homo sapiens, UniProt P42345)
Assay: mTOR kinase assay (DELFIA format, purified enzyme)
Type: biochemical
Conditions: read-out: IC50 mTOR
pIC50: −log10 of the molar value.
Attribute measured: pIC50

1) CC(C)c1nc(-c2ccc(NC(=O)Nc3ccc(I)cc3)cc2)nc(N2CCOCC2)n1 7.94
2) CC(C)N(C)c1nc(-c2ccc(NC(=O)Nc3ccc(OCCN(C)C)cc3)cc2)nc(N2C3CCC2COC3)n1 8.02
3) CCCCc1nc(-c2ccc(NC(=O)Nc3ccc(C(=O)OC)cc3)cc2)nc(N2CCOCC2)n1 7.96
